Recorded values, source patent US11076595B2.

# System: Echinochloa crus-galli
# measurement description: Test Example 12: herbicidal effect test by treatment during growing period in paddy field
# Format: in vivo
# assay setup: 120 g/10a; treatment seven days after sowing in flooded paddy pot; assessed 14 days after treatment
In this section, each of the molecules is paired with its reported Weed suppression rate (%) Echinochloa crus-galli.
// unit must come after the numeric part

Example entries begin here.
>>> df
                           structure_string  endpoint_value
0  CCN(CC)C(=O)n1cnn(S(=O)(=O)c2cccc(Cl)c2)c1=O             70%
1  CC(C)N(C(=O)n1cnn(S(=O)(=O)c2ccc(F)cc2)c1=O)c1ccc(F)c(F)c1F            100%
2  CC(C)N(C(=O)n1cnn(S(=O)(=O)c2ccccc2Cl)c1=O)c1ccc(F)c(F)c1F            100%
3  CC(C)N(C(=O)n1cnn(S(=O)(=O)c2ccc(Cl)cc2)c1=O)c1ccc(Cl)cn1             80%
4  CC(C)N(C(=O)n1cnn(S(=O)(=O)c2ccccc2Cl)c1=O)c1ccc(Cl)cn1             90%

-- ask Which Weed suppression rate (%) Echinochloa crus-galli is reported with Echinochloa crus-galli for this entry: CC(C)N(C(=O)n1cnn(S(=O)(=O)N(C)C)c1=O)c1c(F)c(F)cc(F)c1F ?
-- reply 90%

-- ask Entry to check: CC(C)N(C(=O)n1cnn(S(=O)(=O)c2c(F)c(F)c(F)c(F)c2F)c1=O)c1c(F)cc(F)cc1F
-- reply 100%

-- ask Entry to check: CC(C)N(C(=O)n1cnn(S(=O)(=O)C2CCCCC2)c1=O)c1ccccc1
-- reply 90%

-- ask Entry to check: CC(C)N(C(=O)n1cnn(S(=O)(=O)N(C)C)c1=O)c1ccc(F)cc1
-- reply 90%

-- ask Entry to check: CC(C)N(C(=O)n1cnn(S(=O)(=O)c2ccc(F)cc2)c1=O)c1ccc(Br)cc1Cl
-- reply 60%

-- ask Entry to check: CN(C(=O)n1cnn(S(=O)(=O)c2cccs2)c1=O)c1ccc(F)cc1F
-- reply 100%

====

# Tested on: Echinochloa crus-galli
# measurement description: Test Example 11: herbicidal effect test by soil treatment in paddy field
# Type: in vivo
# assay setup: 120 g/10a active ingredient, 14 days after treatment
quantity: Weed suppression rate (%) Echinochloa crus-galli

Example entries begin here.
>>> df
                           structure_string         target_of_assay  endpoint_value
0  CN(C(=O)n1cnn(S(=O)(=O)C2CCCCC2)c1=O)c1ccc(F)cc1F  Echinochloa crus-galli            100%
1  Cc1ccc(S(=O)(=O)n2ncn(C(=O)N(c3cccc(F)c3)C(C)C)c2=O)cc1  Echinochloa crus-galli             90%

-- ask What value of Weed suppression rate (%) Echinochloa crus-galli has been recorded for this entry: CC(C)N(C(=O)n1cnn(S(=O)(=O)c2cccs2)c1=O)c1c(F)cccc1F
-- reply 100%

-- ask Entry to check: CC(C)N(C(=O)n1cnn(S(=O)(=O)c2ccccc2Cl)c1=O)c1ccc(F)cc1F
-- reply 100%

-- ask Entry to check: CC(C)N(C(=O)n1cnn(S(=O)(=O)C2CCOCC2)c1=O)c1ccc(F)cc1F
-- reply 90%

-- ask Entry to check: CC(C)N(C(=O)n1cnn(S(=O)(=O)N(C)C)c1=O)c1ccc(Cl)cc1Br
-- reply 90%

-- ask Entry to check: CCN(C(=O)n1cnn(S(=O)(=O)c2ccccc2)c1=O)C1CCCCC1
-- reply 90%

-- ask Entry to check: CC(C)N(C(=O)n1cnn(S(=O)(=O)c2ccc(F)cc2)c1=O)c1c(F)cccc1F
-- reply 100%

====

In this section, each of the compounds is paired with its reported Weed suppression rate (%) Echinochloa crus-galli.
# Tested on: Echinochloa crus-galli
# measurement description: Test Example 11: herbicidal effect test by soil treatment in paddy field
# Type: in vivo
# assay setup: 120 g/10a active ingredient, 14 days after treatment
// unit must come after the numeric part

>>> print(df.to_string())
                                   compound  endpoint_value
0  CCN(CC)C(=O)n1cnn(S(=O)(=O)c2ccc(Cl)cc2)c1=O [Compound 11-576]             40%
1  CC(C)N(C(=O)n1cnn(S(=O)(=O)C(C)C)c1=O)c1ccc(Br)cc1Cl [Compound 11-70]            100%

-- ask What value of Weed suppression rate (%) Echinochloa crus-galli has been recorded for this entry: CC(C)N(C(=O)n1cnn(S(=O)(=O)c2ccccc2Cl)c1=O)c1ccccc1 [Compound 11-501]
-- reply 100%

-- ask Entry to check: Cc1ccc(N(C(=O)n2cnn(S(=O)(=O)C(C)C)c2=O)C(C)C)c(F)c1 [Compound 11-73]
-- reply 90%

====

# Tested on: Monochoria vaginalis
# measurement description: Test Example 12: herbicidal effect test by treatment during growing period in paddy field
# Assay type: in vivo
# assay setup: 120 g/10a; treatment seven days after sowing in flooded paddy pot; assessed 14 days after treatment
# Procedure: This test was performed with two replications per one formulation concentration plot, and 14 days after the formulation treatments, the weed suppression rate (%) was determined according to the following equation (Math. 2). Weed suppression rate (%)=(1−average dry weight (g) of plants in treated plots/average dry weight (g) of plants in untreated plots)×100 [Math. 2] […]
In this section, each of the compounds is paired with its reported Weed suppression rate (%) Monochoria vaginalis.
// unit must come after the numeric part

Example entries begin here.
>>> print(df.to_string())
                           structure_string       target_of_assay  endpoint_value
0  Cc1cc(C)c(S(=O)(=O)n2ncn(C(=O)N(c3c(F)c(F)cc(F)c3F)C(C)C)c2=O)c(C)c1  Monochoria vaginalis             80%
1  CC(C)N(C(=O)n1cnn(S(=O)(=O)C(F)(F)F)c1=O)c1ccc(F)cc1F  Monochoria vaginalis             90%
2  CC(C)N(C(=O)n1cnn(S(=O)(=O)c2c(F)c(F)c(F)c(F)c2F)c1=O)c1ccc(F)cc1Cl  Monochoria vaginalis            100%
3  Cc1ccccc1S(=O)(=O)n1ncn(C(=O)N(c2ccc(F)cc2F)C(C)C)c1=O  Monochoria vaginalis            100%
4  CC(C)N(C(=O)n1cnn(S(=O)(=O)c2cccc(F)c2)c1=O)c1c(F)c(F)cc(F)c1F  Monochoria vaginalis             70%

Next:
-- ask What value of Weed suppression rate (%) Monochoria vaginalis has been recorded for this entry: CC(C)N(C(=O)n1cnn(S(=O)(=O)C(C)C)c1=O)c1c(F)c(F)cc(F)c1F
-- reply 90%

====

# Tested on: Amaranthus viridis
# measurement description: Test Example 14: herbicidal effect test by foliage treatment in upland field
# Type: in vivo
# assay setup: 7 days after sowing, 120 g/10a, 14 days after treatment
# Procedure: This test was performed with two replications per one formulation concentration plot, and 14 days after the formulation treatments, the weed suppression rate (%) was determined according to the following equation (Math. 2). Weed suppression rate (%)=(1−average dry weight (g) of plants in treated plots/average dry weight (g) of plants in untreated plots)×100 [Math. 2] […]
In this section, each of the molecules is paired with its reported herbicidal effect, Amaranthus viridis.
// return numeric value only (unit: %, not printed)

Example entries begin here.
>>> print(df.to_string())
                                   molecule  units_label  endpoint_value
0  CC(C)N(C(=O)n1cnn(S(=O)(=O)c2c(F)cccc2F)c1=O)c1ccccc1            %              70
1  CC(C)N(C(=O)n1cnn(S(=O)(=O)C(C)C)c1=O)c1cccc(F)c1F            %              30
2  CC(C)N(C(=O)n1cnn(S(=O)(=O)c2cccs2)c1=O)c1ccc(F)cc1Cl            %              90
3  CC(C)N(C(=O)n1cnn(S(=O)(=O)C2CCCCC2)c1=O)c1c(F)cc(F)cc1F            %              60
4  CC(C)N(C(=O)n1cnn(S(=O)(=O)N(C)C)c1=O)c1ccc(F)cc1F            %              70

-- ask What value of herbicidal effect, Amaranthus viridis has been recorded for this entry: CC(C)N(C(=O)n1cnn(S(=O)(=O)C(C)C)c1=O)c1ccc(F)cc1Cl
-- reply 90

====

# Test system: Monochoria vaginalis
# measurement description: Test Example 12: herbicidal effect test by treatment during growing period in paddy field
# Type: in vivo
# assay setup: 120 g/10a; treatment seven days after sowing in flooded paddy pot; assessed 14 days after treatment
In this section, each of the compounds is paired with its reported Weed suppression rate (%) Monochoria vaginalis.
// return numeric value only (unit: %, not printed)

Example entries begin here.
>>> df
                           structure_string  units_label  endpoint_value
0  CC(C)N(C(=O)n1cnn(S(=O)(=O)C2CCCCC2)c1=O)c1c(F)cccc1F            %              90
1  CC(C)N(C(=O)n1cnn(S(=O)(=O)C2CC2)c1=O)c1cccc(F)c1F            %             100
2  CC(C)N(C(=O)n1cnn(S(=O)(=O)C(C)C)c1=O)c1ccc(Cl)cc1Br            %              70
3  Cc1ccc(N(C(=O)n2cnn(S(=O)(=O)CCl)c2=O)C(C)C)c(F)c1            %              80

-- ask What value of Weed suppression rate (%) Monochoria vaginalis has been recorded for this entry: CC(C)N(C(=O)n1cnn(S(=O)(=O)C2CCCCC2)c1=O)c1cccc(F)c1F
-- reply 100

-- ask Entry to check: CC(C)N(C(=O)n1cnn(S(=O)(=O)c2ccc(F)cc2)c1=O)c1c(F)c(F)cc(F)c1F
-- reply 70

-- ask Entry to check: CC(C)N(C(=O)n1cnn(S(=O)(=O)c2ccccc2F)c1=O)c1ccccc1
-- reply 80
